Assay: reduction of polyQ htt aggregates in cells – imaging, exon1htt(103Q)mCFP cells, high-content imaging, primary screen (AID 483);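 note: compound exposure lasted 3 days before fixation; percent of the per-plate median nuclei count of sample wells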
Conditions: exon1htt(103Q)mCFP cell line, aggregate imaging, at 2 µM; measured here: cell count, toxicity
Exercise: for every item that follows, state its recorded nuclei count.
Numbers only, in %.

[
  {
    "Compound": "O=C(Nc1ccncc1)c1cccc(F)c1",
    "Measurement Units": "%",
    "nuclei count": 95.4
  },
  {
    "Compound": "CSc1nc(C)cc(Oc2ccc(=O)n(C)n2)n1",
    "Measurement Units": "%",
    "nuclei count": 101
  },
  {
    "Compound": "COc1ccc(N(CC(=O)Nc2ccc(F)c(Cl)c2)S(=O)(=O)c2c(C)noc2C)cc1",
    "Measurement Units": "%",
    "nuclei count": 99
  }
]

Respectfully, I request nuclei count for each entry included below.
1. Cc1ccc(C(=O)Nc2ccc(Cl)cn2)cc1S(=O)(=O)N1CCOCC1
2. COCCSc1nnc(NC(=O)Cc2ccccc2OC)s1
3. c1ccc(OCc2nc3ccccc3[nH]2)cc1
4. Cc1cc(Oc2ccccc2)nc(-c2ccccc2)n1
5. Cc1c(C(=O)OCC(C)C)[nH]c2c1C(=O)CC(c1ccco1)C2 (configuration not stated)
6. CCc1nnc2c3cnn(-c4ccccc4)c3ncn12
7. CCC(C)C(=O)Nc1nc2c(s1)C(=O)CC(C)(C)C2 (configuration not stated)

[112, 94.2, 75.8, 99.1, 4, 103, 102]

Respectfully, I request nuclei count for each entry included below.
1. COc1ccc(C(=O)NCCn2ccc3ccccc32)c(OC)c1
2. CCCC(NC(=O)c1ccccc1)c1nc2ccccc2n1Cc1ccc(C(=O)OC)o1 (configuration not stated)

1: 80.1; 2: 105
